Target: T1, cynomolgus monkey TREM2 Fc fusion (entire TREM2 ECD; only one Fc arm fused to TREM2) (cynomolgus monkey, UniProt Q9NZC2 19-174 (human entry))
T1 construct: also called cyno TREM2-Fc
T1 chain: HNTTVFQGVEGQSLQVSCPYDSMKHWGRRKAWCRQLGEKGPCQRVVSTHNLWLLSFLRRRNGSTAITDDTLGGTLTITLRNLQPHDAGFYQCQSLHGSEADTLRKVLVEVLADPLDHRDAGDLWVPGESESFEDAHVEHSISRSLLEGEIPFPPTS
Test: BLI, Fab, monovalent
pKd: −log10 of the molar value.
Listing of recorded pKd by entry.
ATTRIBUTE MEASURED: pKd

1) AL2p-49 (antibody, V domains shown, Fab and IgG formats under one id) VH: EVQLVQSGAEVKKPGSSVKVSCKASGYAFSSDWMNWVRQAPGQGLEWMGRIYPGEGDTNYARKFHGRVTITADESTSTAYMELSSLRSEDTAVYYCARLLRNKPGESYAMDYWGQGTLVTVSS VL: DVVMTQTPLSLSVTPGQPASISCRTSQSLVHSNQYTYLHWYLQKPGQSPQLLIYKVSNRVSGVPDRFSGSGSGTDFTLKISRVEAEDVGVYYCSQSTRVPYTFGQGTKLEIK :: 7.85
2) AL2p-20 (antibody, V domains shown, Fab and IgG formats under one id) VH: QVQLVQSGAEVKKPGSSVKVSCKASGYAFSSHWMNWVRQAPGQGLEWMGRIYPGDGDTNYARKFQGRVTITADESTSTAYMELSSLRSEDTAVYYCARLLRNQPGESYAMDYWGQGTLVTVSS VL: GVVMTQTPLSLSVTPGQPASISCRTSQSLVHSNGYTYLHWYLQKPGQSPQLLIYKVSNRVSGVPDRFSGSGSGTDFTLKISRVEAEDVGVYYCSQSTRVPYTFGQGTKLEIK :: 8.33
